Here's what we have: IC50 numbers for wild type RET (Homo sapiens (Human)).

> print(dat)
                                smiles.data  property  meas.value
1  Cc1cc(Nc2cc(C)[nH]n2)nc([C@H]2CC[C@H](C(=O)NCc3ccc(-n4nc(C)cc4C)nc3)CC2)n1      IC50     < 10 nM

### Prompt Could you share which IC50 value was measured for "CO[C@]1(C(=O)N[C@@H](C)c2ccc(-n3cc(F)cn3)nc2)CC[C@](O)(c2cc(C)cc(Nc3cc(C)[nH]n3)n2)CC1" ?
### Response > 100 nM

----------
Target system: RET V804L (Homo sapiens (Human), UniProt P07949, V804L)
Sequence (P07949 658-1114 V804L): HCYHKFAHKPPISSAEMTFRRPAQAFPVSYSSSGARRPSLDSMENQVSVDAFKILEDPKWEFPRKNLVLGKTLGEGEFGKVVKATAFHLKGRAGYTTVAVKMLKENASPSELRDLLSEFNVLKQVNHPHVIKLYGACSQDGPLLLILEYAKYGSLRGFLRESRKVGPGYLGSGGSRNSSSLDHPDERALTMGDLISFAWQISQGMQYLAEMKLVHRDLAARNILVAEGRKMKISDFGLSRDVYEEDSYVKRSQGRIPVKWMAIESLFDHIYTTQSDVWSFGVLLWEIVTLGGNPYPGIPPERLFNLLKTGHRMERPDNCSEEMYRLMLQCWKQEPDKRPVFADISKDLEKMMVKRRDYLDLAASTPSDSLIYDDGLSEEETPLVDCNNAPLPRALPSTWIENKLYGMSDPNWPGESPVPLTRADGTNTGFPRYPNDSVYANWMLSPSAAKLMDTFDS
Assay info: RET V804L Gatekeeper Mutant Assay at KM (Caliper electrophoretic mobility shift)
Experimental conditions: 10 μM ATP, 25° C., 120 minutes
# IC50 annotations

> print(dat)
                                smiles.data    meas.value
1  Cc1cc(Nc2cc(C)[nH]n2)nc([C@@H]2CC[C@@H](C(=O)N[C@@H](C)c3ccc(-n4cc(F)cn4)nc3)C(C)(C)C2)n1  10 to 100 nM

### Prompt Could you share which IC50 value was measured for "Cc1cc(Nc2cc(C)[nH]n2)nc([C@]2(O)CC[C@@H](C(=O)N[C@@H](C)c3ccc(-n4cc(F)cn4)nc3)OC2)c1" ?
### Response < 10 nM

### Prompt Could you share which IC50 value was measured for "CO[C@]1(C(=O)N[C@@H](C)c2ccc(-n3cc(F)cn3)nc2)CC[C@](O)(c2cc(C)cc(Nc3cc(C)[nH]n3)n2)CC1" ?
### Response > 100 nM
